molecules and their reported pIC50
- System: MCF7
- ASSAY_SUMMARY: Cytotoxicity against human paclitaxel-resistant MCF7 cells after 72 hrs by MTT assay
- Format: functional, cell-based
- CONDITION_SUMMARY: MCF7, 72 h
pIC50 here is simply -log10 of the concentration when that concentration is written in mol/L.

Example molecules with recorded pIC50:
# COMPOUND_STRING, pIC50
measured = [
    ("CCC(=O)O[C@H]1C(=O)[C@@]2(C)[C@H]([C@H](OC(=O)c3cccc(OC)c3)[C@]3(O)C[C@H](OC(=O)[C@H](O)[C@H](C=C(C)C)NC(=O)OC(C)(C)C)C(C)=C1C3(C)C)[C@]1(OC(C)=O)CO[C@@H]1C[C@@H]2O", 7.66),
    ("CC(=O)O[C@@]12CO[C@@H]1C[C@H](O)[C@@]1(C)C(=O)[C@H](OC(=O)C3CC3)C3=C(C)[C@@H](OC(=O)[C@H](O)[C@H](C=C(C)C)NC(=O)OC(C)(C)C)C[C@@](O)([C@@H](OC(=O)c4ccccc4)[C@H]21)C3(C)C", 7.09),
    ("CC(=O)O[C@H]1C(=O)[C@@]2(C)[C@H]([C@H](OC(=O)c3cccc(OC(F)(F)F)c3)[C@]3(O)C[C@H](OC(=O)[C@H](O)[C@H](C=C(C)C)NC(=O)OC(C)(C)C)C(C)=C1C3(C)C)[C@]1(OC(C)=O)CO[C@@H]1C[C@@H]2O", 7.72),
    ("CC(=O)O[C@@]12CO[C@@H]1C[C@H](O)[C@@]1(C)C(=O)[C@H](OC(=O)C3CC3)C3=C(C)[C@@H](OC(=O)[C@H](O)[C@H](C=C(C)C)NC(=O)OC(C)(C)C)C[C@@](O)([C@@H](OC(=O)c4cccc(OC(F)(F)F)c4)[C@H]21)C3(C)C", 7.46),
    ("CC(=O)O[C@@]12CO[C@@H]1C[C@H](O)[C@@]1(C)C(=O)[C@H](OC(=O)N(C)C)C3=C(C)[C@@H](OC(=O)[C@H](O)[C@H](C=C(C)C)NC(=O)OC(C)(C)C)C[C@@](O)([C@@H](OC(=O)c4cccc(OC(F)(F)F)c4)[C@H]21)C3(C)C", 7.50),
]

Now examine the next entry.
GET /values?readout=pIC50&item= CC(=O)O[C@H]1C(=O)[C@@]2(C)[C@H]([C@H](OC(=O)c3ccccc3)[C@]34OC(=O)O[C@H]3[C@H](OC(=O)[C@H](O)[C@H](C=C(C)C)NC(=O)OC(C)(C)C)C(C)=C1C4(C)C)[C@]1(OC(C)=O)CO[C@@H]1C[C@@H]2O
7.18
